measured target: human CD33 L343A (human, UniProt P20138 18-364)
Sequence (P20138 18-364 L343A limits assumed): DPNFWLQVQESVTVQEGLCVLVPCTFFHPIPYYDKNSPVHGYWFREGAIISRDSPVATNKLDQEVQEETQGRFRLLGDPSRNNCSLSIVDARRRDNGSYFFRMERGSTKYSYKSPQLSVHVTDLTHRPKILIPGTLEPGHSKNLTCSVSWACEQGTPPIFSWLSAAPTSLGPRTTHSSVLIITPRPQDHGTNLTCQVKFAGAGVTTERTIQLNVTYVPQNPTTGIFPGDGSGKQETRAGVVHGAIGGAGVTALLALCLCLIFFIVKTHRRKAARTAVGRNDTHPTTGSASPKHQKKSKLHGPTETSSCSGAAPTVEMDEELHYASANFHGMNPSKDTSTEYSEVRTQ
measurement description: flow cytometry, alanine scan
In this section, each of the binders is paired with its reported Mean % WT Binding.

Recorded results for 3 binders are shown here.
binder	Mean % WT Binding
Refmab #4 (antibody, V domains shown, The alanine scan used IgG or Fab) VH: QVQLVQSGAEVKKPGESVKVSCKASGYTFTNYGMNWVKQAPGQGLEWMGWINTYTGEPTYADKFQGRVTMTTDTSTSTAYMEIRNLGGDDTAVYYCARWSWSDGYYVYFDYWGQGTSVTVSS VL: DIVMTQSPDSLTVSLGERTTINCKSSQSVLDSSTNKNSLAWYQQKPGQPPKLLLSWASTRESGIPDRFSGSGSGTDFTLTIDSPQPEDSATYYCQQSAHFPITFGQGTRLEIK	116 % of WT
Refmab #3 (antibody, V domains shown, The alanine scan used IgG or Fab) VH: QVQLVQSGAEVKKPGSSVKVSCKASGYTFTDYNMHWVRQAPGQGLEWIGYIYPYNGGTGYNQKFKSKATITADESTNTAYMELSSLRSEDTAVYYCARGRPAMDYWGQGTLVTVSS VL: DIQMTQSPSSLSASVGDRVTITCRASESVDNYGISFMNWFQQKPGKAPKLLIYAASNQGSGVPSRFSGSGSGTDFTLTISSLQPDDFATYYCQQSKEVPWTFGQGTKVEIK	77.4 % of WT
Refmab #2 (antibody, V domains shown, The alanine scan used IgG or Fab) VH: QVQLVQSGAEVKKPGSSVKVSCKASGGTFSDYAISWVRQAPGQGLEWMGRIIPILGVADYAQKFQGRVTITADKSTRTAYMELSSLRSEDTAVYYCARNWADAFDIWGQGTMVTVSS VL: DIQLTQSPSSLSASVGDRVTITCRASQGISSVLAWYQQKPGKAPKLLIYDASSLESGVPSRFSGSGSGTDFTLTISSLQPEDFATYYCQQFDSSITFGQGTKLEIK	111 % of WT

Kindly consider the entry below.
**Query** Looking for the measured Mean % WT Binding of Refmab #1 (antibody, V domains shown, The alanine scan used IgG or Fab; also called hP67.6) VH: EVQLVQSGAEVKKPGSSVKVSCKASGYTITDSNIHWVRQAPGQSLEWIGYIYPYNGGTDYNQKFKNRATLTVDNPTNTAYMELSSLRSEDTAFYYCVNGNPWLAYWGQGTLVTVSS VL: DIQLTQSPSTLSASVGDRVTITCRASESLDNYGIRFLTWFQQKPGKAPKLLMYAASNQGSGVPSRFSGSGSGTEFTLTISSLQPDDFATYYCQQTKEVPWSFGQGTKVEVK , can you help?
**Result** 88.5 % of WT
